- Tested on: ESS-1 (Other Solid Carcinomas);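 further: after 72 h of two-drug dosing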
- assay.name: Bliss excess, mean over the matrix (fraction); higher = more synergy
reported.metric: Bliss excess
Simply state the number, no unit and no words.

Use the examples below as a reference point.
[
  {
    "compound": "COc1cccc(OCCCN)c1-c1cc(Nc2cnc(C#N)cn2)n[nH]1 [Prexasertib] + C=CCn1c(=O)c2cnc(Nc3ccc(N4CCN(C)CC4)cc3)nc2n1-c1cccc(C(C)(C)O)n1 [AZD1775] (first compound max 1 µM, partner max 1 µM)",
    "endpoint.value": 0.0299
  },
  {
    "compound": "Cn1cnc2c(F)c(Nc3ccc(Br)cc3Cl)c(C(=O)NOCCO)cc21 [Selumetinib] + C=CCn1c(=O)c2cnc(Nc3ccc(N4CCN(C)CC4)cc3)nc2n1-c1cccc(C(C)(C)O)n1 [AZD1775] (first compound max 10 µM, partner max 1 µM)",
    "endpoint.value": -0.052
  },
  {
    "compound": "CN(CCO)CC[C@H](CSc1ccccc1)Nc1ccc(S(=O)(=O)NC(=O)c2ccc(N3CCC([C@@H](O)c4ccccc4-c4ccc(Cl)cc4)CC3)cc2)cc1S(=O)(=O)C(F)(F)F [AZD4320] + C[C@@H]1COCCN1C2=NC(=NC(=C2)C3(CC3)[S@](=N)(=O)C)C4=C5C=CNC5=NC=C4 [AZD6738] (first compound max 1 µM, 7x7, partner max 10 µM)",
    "endpoint.value": -0.0296
  },
  {
    "compound": "C=CCn1c(=O)c2cnc(Nc3ccc(N4CCN(C)CC4)cc3)nc2n1-c1cccc(C(C)(C)O)n1 [AZD1775] + C[C@@H]1COCCN1C2=NC(=NC(=C2)C3(CC3)[S@](=N)(=O)C)C4=C5C=CNC5=NC=C4 [AZD6738] (first compound max 1 µM, partner max 10 µM)",
    "endpoint.value": -0.015
  }
]

// recorded Bliss excess for C[C@@H](Nc1cc(F)cc(F)c1)c1cc(C(=O)N(C)C)cc2c(=O)cc(N3CCOCC3)oc12 [AZD8186] + C1CN(CCC1(C(=O)N[C@@H](CCO)C2=CC=C(C=C2)Cl)N)C3=NC=NC4=C3C=CN4 [AZD5363] (first compound max 10 µM, 7x7, partner max 10 µM) : -0.0165

// recorded Bliss excess for C[C@@H]1COCCN1c1cc(C2([S@](C)(=N)=O)CC2)nc(-c2ccnc3[nH]ccc23)n1 [AZD6738] + Nc1ccn([C@@H]2O[C@H](CO)[C@@H](O)C2(F)F)c(=O)n1 [Gemcitabine] (first compound max 10 µM, 7x7, partner max 0.3 µM) : 0.0734

// recorded Bliss excess for CC1(C)CCC(CN2CCN(c3ccc(C(=O)NS(=O)(=O)c4ccc(NCC5CCOCC5)c([N+](=O)[O-])c4)c(Oc4cnc5[nH]ccc5c4)c3)CC2)=C(c2ccc(Cl)cc2)C1 [Venetoclax] + C=CCn1c(=O)c2cnc(Nc3ccc(N4CCN(C)CC4)cc3)nc2n1-c1cccc(C(C)(C)O)n1 [AZD1775] (first compound max 1 µM, partner max 1 µM) : 0.0835
